Each entry below carries its recorded SIF.
Assay: Stability in Simulated Intestinal Fluid (SIF)
Format: in vitro ADME
Set-up: key: % parent compound remaining relative to 0-minute sample
Details: % remaining @ 1 h

| smiles_str | SIF, % remaining |
| --- | --- |
| CC(C)C[C@@H](NC(=O)OC(C)(C)C)C(=O)OCCCCC(=O)OCn1ccc2c1c(=O)[nH]c(=S)n2CCOC(C)C | 4 |
| CC(C)C[C@H](NC(=O)OC(C)(C)C)C(=O)OCCCCC(=O)OCn1c(=O)c2c(ccn2COC(=O)CCCCOC(=O)[C@H](CC(C)C)NC(=O)OC(C)(C)C)n(CCOC(C)C)c1=S | 26 |
